Data provenance: patent US20260274913A1

Target: T1, cyno TREM-1-His protein (cynomolgus monkey, UniProt A0A2K5VHG8 21-204)
T1 construct: extracellular domain; Soluble analyte of the Octet assay; not shown: His tag
T1 sequence: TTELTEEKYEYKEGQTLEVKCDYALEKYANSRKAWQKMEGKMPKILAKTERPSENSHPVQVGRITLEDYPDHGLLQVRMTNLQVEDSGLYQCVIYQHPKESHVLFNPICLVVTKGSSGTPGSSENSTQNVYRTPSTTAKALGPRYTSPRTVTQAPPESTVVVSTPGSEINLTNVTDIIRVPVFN
Assay: BLI (Octet HTX), antibody captured on anti-human Fc sensor, cyno TREM-1-His as analyte, 1:1 model
pKd: −log10 of the molar value.
PARAMETER: pKd

| BINDER | RESULT |
| --- | --- |
| 66B8 (antibody, V domains shown) VH: QVQLVQSGAEVKKPGASVKVSCKASGYTFTGYYMHWVRQAPGQGLEWMGWFKPNSGVTNYAQKFQGRVTMSRDTSISTAYMELSSLRSDDTAVYYCARAGYSTSWKDWFDPWGQGTLVTVSS VL: DIQMTQFPSSVSASVGDRVTITCRASQGISRWLAWYQQKQGKAPKLLIYMVSSLQSGVPSRFSGSGSGTDFTLTISSLQPEDFATYYCQQSHNFPITFGQGTRLDIK | 8.79 |
| 57C10 (antibody, V domains shown) VH: QVQLVQSGAEVKKPGASVKVSCKASGYTFTRYDINWVRQATGQGLEWMGWLNPNSGNTGQTQKFRGRVTMTRNTSINTAYMELSSLRSEDTAVYYCARGGYTSAWRWYFDLWGRGTLVTVSS VL: DIQMTQSPSSLSASVGDRVTITCQASQDINNHLNWYQQKPGKAPKLLIYDVSNLETGVPSSFSGSGCGTDFTFTISSLQPEDIATYFCQQYDKLPLTFGGGTKVEIE | 8.89 |
| 34D1 (antibody, V domains shown) VH: QVQLVQSGAEVKKPGASVKVSCKASGYTFTRYDINWVRQATGQGLEWMGWMNPNSGNSGSVQKFRGRVTMTRNTSIHIAYMELSSLRSEDTAVYYCARGGYTSSWRWYFDLWGRGTLVTVSS VL: DIQMTQSPSSLSASVGDRVNITCQASQDIRKHLNWYQQKPGKAPNLLIYDAANLETGVPSRFSGSGSGTAFTFTISSLQPEDIATYYCQHYANLPITFGQGTRLEIK | 8.30 |
